- Test system: SPN 49619
- Run Description: MIC, broth microdilution (CLSI), substance alone or ATB combined with compound at 4 or 8 μg/mL
- Format: cell-based, S. pneumoniae
- Run Conditions: SPN 49619; antibiotic alone
Assay Readout: MIC ATB alone (µg/mL)
Give just the numeric value; µg/mL need not be written.

>>> endpoint_value("CO/N=C(\\C(=O)N[C@@H]1C(=O)N2C(C(=O)O)=C(COC(C)=O)CS[C@H]12)c1csc(N)n1 [CTX]")
0.063
>>> endpoint_value("CC(=O)NC[C@H]1CN(c2ccc(N3CCOCC3)c(F)c2)C(=O)O1 [LZD]")
1
>>> endpoint_value("CCC[C@@H]1C[C@@H](C(=O)N[C@@H]([C@H]2O[C@H](SC)[C@H](O)[C@@H](O)[C@H]2O)[C@H](C)Cl)N(C)C1 [CLI]")
0.125

-- ask So what does the record say about MIC ATB alone for CC[C@H]1OC(=O)[C@H](C)[C@@H](O[C@H]2C[C@@](C)(OC)[C@@H](O)[C@H](C)O2)[C@H](C)[C@@H](O[C@@H]2O[C@H](C)C[C@H](N(C)C)[C@H]2O)[C@](C)(O)C[C@@H](C)C(=O)[C@H](C)[C@@H](O)[C@]1(C)O [ERY] ?
-- reply 0.063
